# Target Or System: hA1AR (Homo sapiens, UniProt P30542)
# Sequence (P30542 whole entry): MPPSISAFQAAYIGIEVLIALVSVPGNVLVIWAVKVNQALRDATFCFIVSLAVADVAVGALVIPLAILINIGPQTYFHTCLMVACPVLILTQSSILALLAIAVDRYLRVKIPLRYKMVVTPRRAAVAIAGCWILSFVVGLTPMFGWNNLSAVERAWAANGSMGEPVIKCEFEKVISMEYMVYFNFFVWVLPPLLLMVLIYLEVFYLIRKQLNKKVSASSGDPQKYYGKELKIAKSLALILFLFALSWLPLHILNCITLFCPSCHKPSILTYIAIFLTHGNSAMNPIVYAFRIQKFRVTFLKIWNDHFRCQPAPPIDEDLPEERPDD
# Assay Explanation: biochemical
# Cond: K i ± SEM, MS binding, 6 nM DPCPX marker, overall (one-state) value
Experimental Endpoint: Ki (nM)
Numbers only; they are read as nM.

Task: Query Ki for Cn1c(=O)c2[nH]c(C3CCCC3)nc2n(C)c1=O
Result: 43
